Tested on: SK-MEL-5 melanoma
Assay: NCI tumour cell line growth inhibition, 48 h
# GI50 values compiled below

Record excerpt, results attached:
# molecule, endpoint, result
rows = [
    ("NC(CSSCC(N)C(=O)O)C(=O)O (stereo not drawn)", "GI50", "> 100 µM"),
    ("NC1(Cc2ccc(Cl)cc2)CCN(c2ncnc3[nH]ccc23)CC1", "GI50", "14.9 µM"),
]

Incoming: I have this molecule here, Nc1nc(N)c2nc3c(nc2n1)CCCCCCCCCC3 , and I need its recorded GI50.
Outgoing: 0.652 µM

====

System: HCC-2998 colon
Assay: NCI tumour cell line growth inhibition, 48 h; in the data active = GI50 below about 0.43 µM; inactive = the rest
Bench note: report the call from active, inactive

The examples below pair each entry with its known result.
# smiles-code, class
data = [
    ("O=Cc1ccc(-c2ccc(-c3nc4ccccc4s3)cc2)s1", "inactive"),
    ("COc1ccc(C(=O)c2sc3nc(-c4cccs4)ccc3c2N)cc1OC", "inactive"),
    ("CN(C)c1ccc(/C=N/S(=O)(=O)c2ccc(-n3c(-c4ccccc4)nc4c(Br)cc(Br)cc4c3=O)cc2)cc1", "inactive"),
    ("Cc1[nH]c2cc(F)ccc2c1-c1nc2c3cccnc3c3ncccc3c2[nH]1", "active"),
    ("CC([O-])=C1C(=O)c2ccccc2C1=O.CC([O-])=C1C(=O)c2ccccc2C1=O.CC[O-].CC[O-].[Ti+4]", "inactive"),
    ("CCCCCCNCc1cc(C(C)(C)C)cc(CNCCCCCC)c1O", "inactive"),
]

Then there is this molecule:
Incoming: Name the outcome recorded for CC(=O)/C=C/c1ccc(OCc2ccc(Cl)cc2)cc1 in the assay.
Outgoing: inactive

====

Tested on: SK-MEL-28 melanoma
Assay: NCI tumour cell line growth inhibition, 48 h
Everything with TGI lower than 40 µM is -1; everything else, including exactly 40 µM, is 1.

These recorded examples may help you get a feel for the data.
# compound, class
rows = [
    ("CN(C)c1ccc(/C=N/S(=O)(=O)c2ccc(-n3c(-c4ccccc4)nc4c(Br)cc(Br)cc4c3=O)cc2)cc1", 1),
    ("Cc1nc2ccccc2nc1N=Nc1ccccc1", 1),
    ("CCN1CCC(CNC(=O)c2ccc(N)cc2)N1CC (stereo not given)", 1),
    ("O=C(/C(=C\\I)c1ccccc1)c1ccccc1", -1),
]

Incoming: API: above_or_equal(metric=TGI, cutoff=40 µM) for item C[C@@H](CO)NC(=O)c1cc(-c2ccc(Cl)cc2)nn(-c2cnn(C)c2)c1=O
Outgoing: 1

Incoming: For CC(C)(C)OC(=O)NCc1cccc(N=C=S)c1 then?
Outgoing: -1

Incoming: Another compound: COc1cc2c(/C=C3/C(=O)Nc4ccc(Cl)cc43)c(Cl)[nH]c2cc1C
Outgoing: -1

Incoming: Try this compound too: Cl.Fc1c[c-]c(-c2ccccn2)c(F)c1.[Pt].c1ccc([PH+](C[PH+](c2ccccc2)c2ccccc2)c2ccccc2)cc1
Outgoing: -1

Incoming: Query N#CC(C#N)=C/C=C(\Sc1ccc(F)cc1Cl)c1ccc(Cl)cc1 next
Outgoing: -1

====

Attribute: TGI
Test system: HCT-116 colon
Assay: NCI tumour cell line growth inhibition, 48 h

# molecule, TGI
data = [
    ("Brc1cccc(C2ON=C(c3ccccc3)N2C23CC4CC(CC(C4)C2)C3)c1 (stereo not given)", "> 10 µM"),
]

Incoming: Requested read-out: TGI. Entry: COc1cccc(N2C(=O)C3C4C=C5c6ccccc6N(c6ccccc6)C5(C3C2=O)[C@H]2C(=O)N(c3cccc(OC)c3)C(=O)[C@@H]42)c1 (stereo not given in full)
Outgoing: > 100 µM

Incoming: Try this molecule too: COc1ccc(NCC(=O)Nn2c(-c3ccccc3)nc3ccccc3c2=O)cc1
Outgoing: > 10 µM

Incoming: Same question, CC1OC2OC3C(OCC(O)C3O)OC(=O)[C@]34CCC(C)(C)CC3C3=CCC5[C@@]6(C)C[C@H](O)[C@H](OC7OC(CO)C(O)C(O)C7OC7OCC(OC(=O)CC(C)(O)CC(=O)OC1C(O)C2O)C(O)C7O)[C@@](C)(CO)C6CC[C@@]5(C)[C@]3(C)CC4 (stereo not given in full) this time
Outgoing: 17.4 µM

Incoming: Entry to check: Cc1c2c(n(CC(c3ccccc3)c3ccccc3)c1C)NN=C(C#N)S2(=O)=O
Outgoing: > 100 µM

Incoming: Now this one: COc1cccc(SSc2cccc(OC)c2C(=O)O)c1C(=O)O
Outgoing: > 100 µM

Attribution: PubChem BioAssay (NCI)
